Test: basal HepG2 mitochondrial membrane potential changes, profiling panel, cell-based, JC-1 fluorescence, 24 h, 100 nL compound (AID 1167); note: test concentration not given here
Conditions: higher = more signal
Please provide measured z-score for the entries that follow.
Numbers only.

[N-]=[N+]=NCc1ccccc1C[C@]1(C(=O)N2CCOCC2)COC(c2ccc(OCCCO)cc2)=N1 ... 1.72
O=c1cccc(-c2ccco2)o1 ... -0.79
O=C1O[C@H](c2ccccc2)[C@H](c2ccccc2)N2[C@H]1[C@@H](C(=O)N1CCCCCCC1)[C@]1(C(=O)Nc3ccc(C#CC4(O)CCCCCC4)cc31)[C@H]2c1ccccc1OCCO ... -0.175

Please go through the list and note z-score for each molecule.
1. CC(C)CNC(=O)[C@@]1(c2ccc([N+](=O)[O-])cc2)CC(=O)N(C2CCCCC2)[C@@H]1c1ccc(CO)cc1
2. C=C(/C(=C/C[C@H](OC(=O)c1ccncc1)c1cccc(OCCO)c1)c1cnc2ccccc2c1)C(C)C
3. Cc1ccccc1C(O)C1C=CC2C(=O)NC(=O)C2N1Nc1ccc(Cl)cc1Cl (stereo not drawn)
4. CC(C)[Si]1(C(C)C)OCc2cc(-c3ccc(-c4ccc(Cl)c(Cl)c4)o3)nc(CCc3ccccc3)c21

[A]
1: 0.634; 2: -0.437; 3: -2.8; 4: -2.07

[Q] What does the record list as z-score for `CN(C)C(=O)[C@]1(CCS(=O)(=O)c2ccccc2)N=C(c2ccc(OCCCO)cc2)O[C@@H]1c1ccccc1` ?
[A] 1.34

====

Target: Fibroblast growth factor 10 (Homo sapiens) (UniProt O15520)
Sequence (O15520 whole entry, looked up): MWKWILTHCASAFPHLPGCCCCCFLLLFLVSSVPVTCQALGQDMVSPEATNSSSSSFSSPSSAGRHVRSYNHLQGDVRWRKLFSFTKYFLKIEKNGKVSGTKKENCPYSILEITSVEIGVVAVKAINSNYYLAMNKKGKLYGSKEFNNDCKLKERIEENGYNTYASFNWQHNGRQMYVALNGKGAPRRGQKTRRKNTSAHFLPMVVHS
Experiment: FGF10 binders on small-molecule microarrays, primary screen, biochemical, small-molecule microarray, 635 nm fluorescence (AID 1102)
Details: FGF10 binding, fluorescence 635 nm, higher = more signal
I'd appreciate it if you could supply composite z-score values for the items below.
Give bare numbers.

Use these answered entries as a reference point.
CCOC(=O)C1=CCC(c2ccco2)N(S(=O)(=O)c2ccc(C)cc2)C1 (configuration not stated) ... 1.12
COC(=O)[C@@]1(Cc2ccc(F)cc2)[C@H]2c3cc(C(=O)N4CCCC4)n(C)c3C[C@H]2CN1C(=O)c1ccccc1 ... 0.549
NC(=O)[C@H]1[C@@H]2C(=O)O[C@@H](c3ccccc3)[C@@H](c3ccccc3)N2[C@@H](c2ccc(O)cc2)[C@]12C(=O)Nc1ccc(C#CC3=CCCCC3)cc12 ... 0.0647
COCCOC(=O)N1C(=O)[C@@]2(c3cc(C#CCC(C(=O)OC)C(=O)OC)ccc31)[C@H](C(=O)NC[C@H](O)c1ccccc1)[C@H]1C(=O)O[C@H](c3ccccc3)[C@H](c3ccccc3)N1[C@@H]2c1ccc(O)cc1 ... 0.923
COc1ccc(C(O)C2C=CC3C(=O)N(c4ccccc4)C(=O)C3N2Nc2ccccc2F)cc1 (configuration not stated) ... 0.111

Please give composite z-score for each item listed below.
1. CN1C(=O)C2C(C1=O)C1C=C(CCCO)C2C(c2cccs2)N1Cc1cc2c(cc1Br)OCO2 (configuration not stated)
2. COC(=O)[C@@]1(Cc2ccc(OC)cc2)[C@H]2c3cc(C(=O)N4CCCC4)n(Cc4ccc(OC(F)(F)F)cc4)c3C[C@H]2CN1C(=O)c1ccccc1

[A]
1: 0.922; 2: 0.717

====

Test: mitochondrial membrane potential change in A549 cells, profiling panel, cell-based, JC-1 fluorescence, basal, 24 h, 100 nL (AID 1138);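 note: A549 lung adenocarcinoma cells under basal conditions with no added stimulus; test concentration not given here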
Conditions: higher = more signal
measuredMetric: z-score
Give bare numbers.

Look up z-score for the entries below, preserving their order.
1. C[C@@H]1ON(c2ccc(I)cc2)[C@H](c2ccc(OC(=O)OC(C)(C)C)cc2)[C@H]1C(=O)N1C(=O)OC[C@H]1Cc1ccccc1
2. C[C@]1(C(=O)O)c2ccccc2C(=O)N(Cc2ccc(OC(F)(F)F)cc2)[C@H]1c1ccc(CO)cc1
3. COCCCNC(=O)[C@@]1(Sc2ccc(C)cc2)CC(=O)N(Cc2ccccc2Cl)[C@@H]1c1ccc(CO)cc1I

[A]
0.386
0.447
0.919
